- Method Summary: Intrinsic clearance in mouse liver microsomes incubated for 6 hrs by LC/MS analysis
- Assay type: ADME, Microsome
- Run Parameters: read-out: CLH
Recorded microsomal CLint values for a group of compounds are listed next.
Number in µL/min/mg, nothing else.

COc1ccccc1OCC(O)CN1CCC(=C2c3ccc(Cl)cc3CCc3cccnc32)CC1 (racemic)	945

-- ask Name the reported microsomal CLint value associated with the compound Cc1ncc2n1-c1ccc(Cl)cc1C(c1ccccc1F)=NC2 [MIDAZOLAM]
-- reply 430

---

- Method Summary: Half life in rat liver microsomes incubated for 6 hrs by LC/MS analysis
- Format: ADME, Microsome
Recorded half-life values for a group of compounds are listed next.
Number in min, nothing else.

-- ask Name the reported half-life value associated with the compound COc1ccccc1OCC(O)CN1CCC(=C2c3ccc(Cl)cc3CCc3cccnc32)CC1 (racemic)
-- reply 3.87

-- ask Name the reported half-life value associated with the compound Cc1ncc2n1-c1ccc(Cl)cc1C(c1ccccc1F)=NC2 [MIDAZOLAM]
-- reply 4.29
